src = patent US7118895B2

Exercise: for every item that follows, state its recorded Decomposition efficiency: ratio of each glycoside/aglycon within its isoflavone family.
Test system: Crude diglycosidase
Experiment: Examination of substrate concentration in the conversion into isoflavone aglycons by diglycosidase using soybean materials;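 note: percent of the isoflavone family total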
Type: biochemical, Penicillium multicolor IAM7153
Conditions: concentrated soybean protein, substrate concentration 20%, heat treatment of enzyme no, reaction time 1 h
One number for each entry, in %.

[[record]]
smiles_str = "COc1cc2c(=O)c(-c3ccc(O)cc3)coc2cc1O[C@@H]1O[C@H](COC(=O)CC(=O)O)[C@@H](O)[C@H](O)[C@H]1O"
reported_measurement = 0.3


Query: Data request, read-out Decomposition efficiency: ratio of each glycoside/aglycon within its isoflavone family, for `COc1cc2c(=O)c(-c3ccc(O)cc3)coc2cc1O[C@@H]1O[C@H](CO)[C@@H](O)[C@H](O)[C@H]1O`
Response: 13.2

* * *

Tested on: Crude diglycosidase
Experiment: Examination of pH in the conversion into isoflavone aglycons by diglycosidase using soybean materials
Type: biochemical, Penicillium multicolor IAM7153
Set-up: concentration or dose not given beside the values
Settings: pH5.4; heat treatment of enzyme: no; reaction time 3 h
measurement_type: Decomposition efficiency of genistin family in defatted soybean (%)
One number for each entry, in %.

[[record]]
molecule = "O=c1c(-c2ccc(O)cc2)coc2cc(O)cc(O)c12 [genistein]"
system_name = "Crude diglycosidase"
reported_measurement = 55.4


Alright, here's another molecule for you.
Query: Missing value: Decomposition efficiency of genistin family in defatted soybean, Crude diglycosidase, entry O=C(O)CC(=O)OC[C@H]1O[C@@H](Oc2cc(O)c3c(=O)c(-c4ccc(O)cc4)coc3c2)[C@H](O)[C@@H](O)[C@@H]1O [malonylgenistin, 6″-O-malonylgenistin] . Fill in?
Response: 44.6

* * *

System: Diglycosidase derived from P. multicolor
Assay: Reactivity toward various isoflavone glycosides (HPLC)
Format: biochemical, Penicillium multicolor
Design: unit not given here
Settings: Reaction time 6 h; 55 °C, pH 4.0
measurement_type: aglycon
Answers are plain numbers.

Some entries whose results are on file:
[[record]]
compound = "CC(=O)OC[C@H]1O[C@@H](Oc2ccc3c(=O)c(-c4ccc(O)cc4)coc3c2)[C@H](O)[C@@H](O)[C@@H]1O [acetyldaidzin, 6″-O-acetyldaidzin]"
measurement_type = "aglycon"
reported_measurement = 96.2

[[record]]
compound = "CC(=O)OC[C@H]1O[C@@H](Oc2cc(O)c3c(=O)c(-c4ccc(O)cc4)coc3c2)[C@H](O)[C@@H](O)[C@@H]1O [acetylgenistin, 6″-O-acetylgenistin]"
measurement_type = "aglycon"
reported_measurement = 99.8


Alright, here's another compound for you.
Query: Missing value: aglycon, Diglycosidase derived from P. multicolor, entry O=C(O)CC(=O)OC[C@H]1O[C@@H](Oc2ccc3c(=O)c(-c4ccc(O)cc4)coc3c2)[C@H](O)[C@@H](O)[C@@H]1O [malonyldaidzin, 6″-O-malonyldaidzin] . Fill in?
Response: 61.5

* * *

System: Crude diglycosidase
Test: Examination of temperature in the conversion into isoflavone aglycons by diglycosidase using soybean materials
Assay type: biochemical, Penicillium multicolor IAM7153
Settings: 30° C., heat treatment of enzyme no, reaction time 3 h
measurement_type: Decomposition efficiency of genistin family in defatted soybean (%)
One number for each entry, in %.

Some entries whose results are on file:
[[record]]
smiles_str = "O=c1c(-c2ccc(O)cc2)coc2cc(O)cc(O)c12"
reported_measurement = 50.2

[[record]]
smiles_str = "CC(=O)OC[C@H]1O[C@@H](Oc2cc(O)c3c(=O)c(-c4ccc(O)cc4)coc3c2)[C@H](O)[C@@H](O)[C@@H]1O"
reported_measurement = 0.7


Alright, here's another compound for you.
Query: Data request, read-out Decomposition efficiency of genistin family in defatted soybean, for `O=C(O)CC(=O)OC[C@H]1O[C@@H](Oc2cc(O)c3c(=O)c(-c4ccc(O)cc4)coc3c2)[C@H](O)[C@@H](O)[C@@H]1O`
Response: 49.1
